assay: clinical; conditions: human, CSF/plasma, oral

# Chemical Structure, Kp
data = [
    ("CC(C)(C)NC[C@H](O)c1cccc(C#N)n1", 0.42),
]

---

Target: β1-AR (Homo sapiens)
Construct: expressed in transfected cells; host or cells: CHO-K1
Test: cAMP Gs HTRF assay, inhibition of isoproterenol-stimulated cAMP, affinity by Leff-Dougall equation
Format: cell-based
Conditions: CHO-K1 cells, approximate EC80 isoproterenol
Excerpt: When cAMP turnover is reduced by blocking phosphodiesterases with IBMX, cAMP accumulation occurs, and this accumulation is detected in the cAMP Gs Homogenous Time Resolved Fluorescence (HTRF) assay. The HTRF assay is a competitive inhibition assay. […] Increases in endogenous cAMP therefore cause a reduction in HTRF signal, expressed as a ratio of FRET acceptor fluorescence and FRET donor fluorescence. […]

# Compound, pKi
data = [
    ("CC(C)(C)NCC(O)COc1cccc2c1CC(O)C(O)C2 (single isomer, unassigned) [NI-A, (RSR)-nadolol]", 6.05),
    ("CC(C)(C)NCC(O)COc1cccc2c1CC(O)C(O)C2 (single isomer, unassigned) [NI-B, (RRS)-nadolol]", 6.45),
    ("CC(C)(C)NCC(O)COc1cccc2c1CC(O)C(O)C2 (single isomer, unassigned) [NI-D, (SSR)-nadolol]", 8.58),
    ("CC(C)(C)NCC(O)COc1cccc2c1CC(O)C(O)C2 (single isomer, unassigned) [NI-C, (SRS)-nadolol]", 8.34),
]

---

target: β1-AR (Homo sapiens, UniProt P08588); assay: cAMP Gs HTRF assay, inhibition of isoproterenol-stimulated cAMP, affinity by Leff-Dougall equation; details: CHO-K1 cells, approximate EC80 isoproterenol
Sequence (P08588 whole entry): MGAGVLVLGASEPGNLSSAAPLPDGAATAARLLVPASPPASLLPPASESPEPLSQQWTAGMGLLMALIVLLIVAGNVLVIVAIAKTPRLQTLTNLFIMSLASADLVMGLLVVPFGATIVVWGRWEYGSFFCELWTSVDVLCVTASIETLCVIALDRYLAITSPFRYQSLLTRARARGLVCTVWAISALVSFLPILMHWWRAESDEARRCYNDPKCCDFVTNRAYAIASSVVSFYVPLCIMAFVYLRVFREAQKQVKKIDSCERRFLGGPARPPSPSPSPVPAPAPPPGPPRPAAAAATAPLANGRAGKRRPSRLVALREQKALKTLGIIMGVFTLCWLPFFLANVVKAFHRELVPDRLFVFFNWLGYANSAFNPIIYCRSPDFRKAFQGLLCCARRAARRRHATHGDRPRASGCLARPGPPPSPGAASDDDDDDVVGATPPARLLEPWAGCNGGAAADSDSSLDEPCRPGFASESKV
pKi: −log10 of the molar value.
satisfied means recorded pKi is 8 or above; not satisfied means it is below 8.

# Compound, Qualitative Label
records = [
    ("CC(C)(C)NCC(O)COc1cccc2c1CC(O)C(O)C2 (single isomer, unassigned) [NI-A, (RSR)-nadolol]", "not satisfied"),
    ("CC(C)(C)NCC(O)COc1cccc2c1CC(O)C(O)C2 (single isomer, unassigned) [NI-B, (RRS)-nadolol]", "not satisfied"),
    ("CC(C)(C)NCC(O)COc1cccc2c1CC(O)C(O)C2 (single isomer, unassigned) [NI-C, (SRS)-nadolol]", "satisfied"),
    ("CC(C)(C)NCC(O)COc1cccc2c1CC(O)C(O)C2 (single isomer, unassigned) [NI-D, (SSR)-nadolol]", "satisfied"),
    ("CC(C)(C)NCC(O)COc1cccc2c1CC(O)C(O)C2 (centres unmarked) [Nadolol, reference compound]", "satisfied"),
]
